# Tested on: Miltenberger Antibody Positive Panel
# protocolNotes: Reactivity of modified RBCs against the Miltenberger Antibody Positive Panel
# Assay type: cell-based, human
# Set-up: key: 0 or ‘−’ no agglutination; 0 or ‘−’ no agglutination; 1+ or 3=very weak agglutination; 1+ or 3=very weak agglutination; 2+ or 5=weak agglutination; 2+ or 5=weak agglutination; 3+ or 8=moderate strong agglutination; 3+ or 8=moderate strong agglutination; 4+ or 10/12=strong agglutination; 4+ or 10/12=strong agglutination; 4+ or 10/12=strong agglutination
# runConditions: Table 9; construct 50 μg/ml
# Text: Red blood cells are modified by mixing 1 part by volume of washed packed red blood cells with 1 part by volume of peptide-lipid construct dispersed at a concentration of 10 to 1000 pg/ml in cell media (Celpresol™). […] Serological reactions are graded or scored by either of two established systems (0 or ‘−’ no agglutination, 1+ or 3=very weak agglutination, 2+ or 5=weak agglutination, 3+ or 8=moderate strong agglutination, 4+ or 10/12=strong agglutination) […]
No end group written: not given here.
Each entry below carries its recorded score vs panel 7 T8445.
Lab note: jot the number down without any unit.

substance	score vs panel 7 T8445
M27: DOPE peptide-lipid construct: Mur peptide TYPAHTAN, leader c, spacer CMG(2) (TYPAHTANC; also: DOPE peptide-lipid construct via leader Cys, spacer CMG(2))	0
M26: DOPE peptide-lipid construct: Mur peptide YPAHTANEV, leader c, spacer CMG(2) (YPAHTANEVC; also: DOPE peptide-lipid construct via leader Cys, spacer CMG(2))	8
M28: DOPE peptide-lipid construct: Mur peptide TYPAHTANE, leader c, spacer CMG(2) (TYPAHTANEC; also: DOPE peptide-lipid construct via leader Cys, spacer CMG(2))	8

Q: Please provide the recorded score vs panel 7 T8445 for M14: DOPE peptide-lipid construct: Mur peptide DTYPAHTANEVSE, leader c, spacer CMG(2) (DTYPAHTANEVSEC; also: DOPE peptide-lipid construct via leader Cys, spacer CMG(2)) , tested on Miltenberger Antibody Positive Panel.
Ans: 8

Q: M31: DOPE peptide-lipid construct: Mur peptide YPAHTANEVS, leader c, spacer CMG(2) (YPAHTANEVSC; also: DOPE peptide-lipid construct via leader Cys, spacer CMG(2)) ?
Ans: 8

Q: Entry to check: M30: DOPE peptide-lipid construct: Mur peptide DTYPAHTANE, leader c, spacer CMG(2) (DTYPAHTANEC; also: DOPE peptide-lipid construct via leader Cys, spacer CMG(2))
Ans: 8

src = patent US10919941B2
